target.system: UniProtKB Q9H2G2
Sequence (Q9H2G2 whole entry, looked up): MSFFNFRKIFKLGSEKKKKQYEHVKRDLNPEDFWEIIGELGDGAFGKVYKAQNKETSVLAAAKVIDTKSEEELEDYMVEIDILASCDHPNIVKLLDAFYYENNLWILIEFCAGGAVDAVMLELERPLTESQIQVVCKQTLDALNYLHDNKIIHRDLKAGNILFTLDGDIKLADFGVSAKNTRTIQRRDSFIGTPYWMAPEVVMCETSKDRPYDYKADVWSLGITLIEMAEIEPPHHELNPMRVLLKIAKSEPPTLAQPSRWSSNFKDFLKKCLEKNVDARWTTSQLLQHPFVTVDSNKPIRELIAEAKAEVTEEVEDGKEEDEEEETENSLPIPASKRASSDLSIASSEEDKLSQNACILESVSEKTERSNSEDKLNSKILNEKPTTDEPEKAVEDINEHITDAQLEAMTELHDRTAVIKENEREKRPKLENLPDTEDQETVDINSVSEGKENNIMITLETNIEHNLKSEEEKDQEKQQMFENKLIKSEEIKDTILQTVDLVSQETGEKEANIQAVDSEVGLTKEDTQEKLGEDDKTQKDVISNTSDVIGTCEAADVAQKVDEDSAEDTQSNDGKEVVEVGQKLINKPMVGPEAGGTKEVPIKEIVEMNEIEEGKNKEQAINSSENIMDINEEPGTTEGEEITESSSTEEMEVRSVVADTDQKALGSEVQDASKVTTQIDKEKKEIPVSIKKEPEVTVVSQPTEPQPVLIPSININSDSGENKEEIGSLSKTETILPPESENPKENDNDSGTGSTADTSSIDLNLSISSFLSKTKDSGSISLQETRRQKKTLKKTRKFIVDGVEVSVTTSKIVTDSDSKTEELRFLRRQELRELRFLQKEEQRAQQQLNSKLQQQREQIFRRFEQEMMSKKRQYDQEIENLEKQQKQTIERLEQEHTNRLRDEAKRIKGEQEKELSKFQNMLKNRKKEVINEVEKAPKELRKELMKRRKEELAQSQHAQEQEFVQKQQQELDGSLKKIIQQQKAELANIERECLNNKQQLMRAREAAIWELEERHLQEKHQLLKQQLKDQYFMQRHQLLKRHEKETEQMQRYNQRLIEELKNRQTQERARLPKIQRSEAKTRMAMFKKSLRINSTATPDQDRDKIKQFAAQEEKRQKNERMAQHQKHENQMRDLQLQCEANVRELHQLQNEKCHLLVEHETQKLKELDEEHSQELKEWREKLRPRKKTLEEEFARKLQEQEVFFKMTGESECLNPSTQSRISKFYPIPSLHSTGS
procedure.text: radiometric filter-binding kinase assay, Kinase HotSpot
condition.set: compound 0.5 µM; ATP 10 µM

{"molecule": "COc1ccc(COc2ccc(Cc3cnc(N)nc3N)cc2OC)cc1", "residual activity": "97.7%"}
{"molecule": "CCN(CC)C(=O)c1ccc(Nc2nc(OCC3CCCCC3)c3nc[nH]c3n2)cc1", "residual activity": "71.2%"}
{"molecule": "Oc1cccc(-c2nc(N3CCOCC3)c3oc4ncccc4c3n2)c1", "residual activity": "101%"}
{"molecule": "c1ccc(-c2n[nH]c3c2oc2ccccc23)cc1", "residual activity": "107%"}
{"molecule": "O=C1Nc2ccc(Cl)cc2/C1=C/c1cc(Cl)c(O)c(Cl)c1", "residual activity": "95.3%"}
{"molecule": "O=C(Nc1cccc(Nc2nccc(Nc3cccc(C(F)(F)F)c3)n2)c1)C1CC1", "residual activity": "92.9%"}
{"molecule": "N#C/C(=C(/N)Sc1ccc(N)cc1)c1ccccc1C(F)(F)F", "residual activity": "102%"}
{"molecule": "O=C1NC(=O)c2c1c1c3ccccc3n3c1c1c2c2ccccc2n1C1CCC3O1", "residual activity": "26%"}
{"molecule": "Nc1ncnc2[nH]nc(Nc3ccc(F)cc3)c12", "residual activity": "99.5%"}
{"molecule": "O=C1NC(=O)/C(=C/c2ccc3c(c2)OC(F)(F)O3)S1", "residual activity": "98.3%"}
{"molecule": "CNC(=O)c1cc(Oc2ccc(NC(=O)Nc3ccc(Cl)c(C(F)(F)F)c3)cc2)ccn1", "residual activity": "96.8%"}
{"molecule": "CNc1cc2c(Nc3cccc(Br)c3)ncnc2cn1", "residual activity": "63%"}
{"molecule": "c1ccc(-c2n[nH]cc2-c2ccnc3ccccc23)nc1", "residual activity": "104%"}
{"molecule": "CC(=O)c1ccc(N2CCOCC2)cc1O", "residual activity": "105%"}
{"molecule": "CCOC(=O)c1c(C)[nH]c(/C=C2\\C(=O)Nc3ccccc32)c1C", "residual activity": "89.8%"}
{"molecule": "O=C1NC(=O)C(c2cn(CCCn3ccnc3)c3ccccc23)=C1Nc1ccccc1", "residual activity": "39.1%"}
{"molecule": "Cc1ccc(S(=O)(=O)/C=C/C#N)cc1", "residual activity": "101%"}
{"molecule": "CCN(CC)CCNC(=O)c1c(C)[nH]c(/C=C2\\C(=O)Nc3ccc(F)cc32)c1C", "residual activity": "63.8%"}
{"molecule": "O=c1cc(N2CCOCC2)oc2c1ccc1ccccc12", "residual activity": "102%"}
{"molecule": "Nc1cccc(-c2cc3c(Oc4cccc(O)c4)ncnc3[nH]2)c1", "residual activity": "64.1%"}
{"molecule": "COc1cc2ncnc(Nc3cccc(Cl)c3)c2cc1OC", "residual activity": "64.6%"}
{"molecule": "CCC(=O)Nc1ccc2ncnc(Nc3cccc(Br)c3)c2c1", "residual activity": "90%"}
{"molecule": "Nc1ccc2ncnc(NCCc3ccc(Oc4ccccc4)cc3)c2c1", "residual activity": "102%"}
{"molecule": "Cc1ccc(NC2=CC(=O)c3sc(C)nc3C2=O)cc1", "residual activity": "80.6%"}
{"molecule": "CC#CC(=O)Nc1cc2c(Nc3ccc(F)c(Cl)c3)ncnc2cn1", "residual activity": "93.6%"}
{"molecule": "CO[C@H]1CC2CC[C@@H](C)[C@@](O)(O2)C(=O)C(=O)N2CCCC[C@H]2C(=O)OC([C@H](C)C[C@@H]2CC[C@@H](O)[C@H](OC)C2)CC(=O)[C@H](C)/C=C(\\C)[C@@H](O)[C@@H](OC)C(=O)[C@H](C)C[C@H](C)/C=C/C=C/C=C/1C (stereo partly specified)", "residual activity": "98.7%"}
{"molecule": "COc1ccc2c(c[n+](C)c3c4cc5c(cc4ccc23)OCO5)c1OC", "residual activity": "87.4%"}
{"molecule": "CC[n+]1c(/C=C/N(C)c2ccccc2)n(-c2ccccc2)c2ccc(-c3nc4ccccc4s3)cc21", "residual activity": "101%"}
{"molecule": "O=S(=O)(c1cccc2cnccc12)N1CCCNCC1", "residual activity": "95.8%"}
{"molecule": "N#CC(C#N)=C(N)/C(C#N)=C/c1ccc(O)cc1", "residual activity": "102%"}
{"molecule": "CC(C)N(CCC(=O)c1ccc2ccccc2c1)Cc1ccccc1", "residual activity": "101%"}

---

Each entry below lists one item and its recorded residual activity value.
target.system: NLK (human) (UniProt Q9UBE8)
Sequence (Q9UBE8 whole entry, looked up): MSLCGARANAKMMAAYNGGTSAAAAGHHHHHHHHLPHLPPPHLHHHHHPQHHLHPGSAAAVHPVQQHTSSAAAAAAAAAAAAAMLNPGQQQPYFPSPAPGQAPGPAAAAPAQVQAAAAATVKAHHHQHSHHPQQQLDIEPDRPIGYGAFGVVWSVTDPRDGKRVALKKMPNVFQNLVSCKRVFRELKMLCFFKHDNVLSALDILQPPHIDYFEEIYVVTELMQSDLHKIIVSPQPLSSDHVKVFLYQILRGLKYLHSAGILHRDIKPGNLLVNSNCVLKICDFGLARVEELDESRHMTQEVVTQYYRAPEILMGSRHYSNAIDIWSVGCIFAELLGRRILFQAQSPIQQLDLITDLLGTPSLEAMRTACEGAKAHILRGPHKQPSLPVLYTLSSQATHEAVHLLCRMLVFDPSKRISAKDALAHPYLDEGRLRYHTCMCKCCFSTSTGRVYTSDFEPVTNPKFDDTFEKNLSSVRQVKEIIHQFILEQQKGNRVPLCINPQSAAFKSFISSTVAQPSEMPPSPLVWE
procedure.text: radiometric filter-binding kinase assay, Kinase HotSpot
condition.set: compound 0.5 µM; ATP 10 µM

{"molecule": "O=C(Nc1cccc(Nc2nccc(Nc3cccc(C(F)(F)F)c3)n2)c1)C1CC1", "residual activity": "101%"}
{"molecule": "CC(=O)c1ccc(N2CCOCC2)cc1O", "residual activity": "95.6%"}
{"molecule": "O=c1cc(N2CCOCC2)oc2c1ccc1ccccc12", "residual activity": "103%"}
{"molecule": "CCN(CC)C(=O)c1ccc(Nc2nc(OCC3CCCCC3)c3nc[nH]c3n2)cc1", "residual activity": "94.5%"}
{"molecule": "N#CC(C#N)=C(N)/C(C#N)=C/c1ccc(O)cc1", "residual activity": "96.7%"}
{"molecule": "O=C1Nc2ccc(Cl)cc2/C1=C/c1cc(Cl)c(O)c(Cl)c1", "residual activity": "38.9%"}
{"molecule": "CC(C)N(CCC(=O)c1ccc2ccccc2c1)Cc1ccccc1", "residual activity": "94.8%"}
{"molecule": "CO[C@H]1CC2CC[C@@H](C)[C@@](O)(O2)C(=O)C(=O)N2CCCC[C@H]2C(=O)OC([C@H](C)C[C@@H]2CC[C@@H](O)[C@H](OC)C2)CC(=O)[C@H](C)/C=C(\\C)[C@@H](O)[C@@H](OC)C(=O)[C@H](C)C[C@H](C)/C=C/C=C/C=C/1C (stereo partly specified)", "residual activity": "97.3%"}
{"molecule": "O=C1NC(=O)/C(=C/c2ccc3c(c2)OC(F)(F)O3)S1", "residual activity": "93.8%"}
{"molecule": "Cc1[nH]c(/C=C2\\C(=O)Nc3ccc(S(=O)(=O)N(C)c4cccc(Cl)c4)cc32)c(C)c1C(=O)N1CCN(C)CC1", "residual activity": "106%"}
{"molecule": "COc1ccc2c(c[n+](C)c3c4cc5c(cc4ccc23)OCO5)c1OC", "residual activity": "102%"}
{"molecule": "CC[n+]1c(/C=C/N(C)c2ccccc2)n(-c2ccccc2)c2ccc(-c3nc4ccccc4s3)cc21", "residual activity": "105%"}
{"molecule": "CNc1cc2c(Nc3cccc(Br)c3)ncnc2cn1", "residual activity": "84.3%"}
{"molecule": "N#C/C(=C(/N)Sc1ccc(N)cc1)c1ccccc1C(F)(F)F", "residual activity": "108%"}
{"molecule": "Nc1ncnc2c1c(-c1ccc(Oc3ccccc3)cc1)cn2C1CCCC1", "residual activity": "96.9%"}
{"molecule": "CCN(CC)CCNC(=O)c1c(C)[nH]c(/C=C2\\C(=O)Nc3ccc(F)cc32)c1C", "residual activity": "105%"}
{"molecule": "COc1cc2ncnc(Nc3cccc(Cl)c3)c2cc1OC", "residual activity": "83.1%"}
{"molecule": "CNC(=O)c1cc(Oc2ccc(NC(=O)Nc3ccc(Cl)c(C(F)(F)F)c3)cc2)ccn1", "residual activity": "99.1%"}
{"molecule": "CCC(=O)Nc1ccc2ncnc(Nc3cccc(Br)c3)c2c1", "residual activity": "95.9%"}
{"molecule": "O=S(=O)(c1cccc2cnccc12)N1CCCNCC1", "residual activity": "97.3%"}
{"molecule": "COc1ccc(COc2ccc(Cc3cnc(N)nc3N)cc2OC)cc1", "residual activity": "105%"}
{"molecule": "O=C1NC(=O)c2c1c1c3ccccc3n3c1c1c2c2ccccc2n1C1CCC3O1", "residual activity": "74.1%"}
{"molecule": "CCCC(=O)Oc1ccc2[nH]c(C(=O)c3cc4ccccc4[nH]3)cc2c1", "residual activity": "106%"}
{"molecule": "c1ccc(-c2n[nH]cc2-c2ccnc3ccccc23)nc1", "residual activity": "79.8%"}
{"molecule": "Nc1cccc(-c2cc3c(Oc4cccc(O)c4)ncnc3[nH]2)c1", "residual activity": "87.7%"}
{"molecule": "c1ccc(-c2n[nH]c3c2oc2ccccc23)cc1", "residual activity": "92.3%"}
{"molecule": "Oc1cccc(-c2nc(N3CCOCC3)c3oc4ncccc4c3n2)c1", "residual activity": "97.4%"}
{"molecule": "CC#CC(=O)Nc1cc2c(Nc3ccc(F)c(Cl)c3)ncnc2cn1", "residual activity": "99.7%"}
{"molecule": "O=C1NC(=O)C(c2cn(CCCn3ccnc3)c3ccccc23)=C1Nc1ccccc1", "residual activity": "97%"}
{"molecule": "Nc1ccc2ncnc(NCCc3ccc(Oc4ccccc4)cc3)c2c1", "residual activity": "104%"}
{"molecule": "Cc1ccc(S(=O)(=O)/C=C/C#N)cc1", "residual activity": "99.2%"}
{"molecule": "Cc1ccc(Nc2nccc(N(C)c3ccc4c(C)n(C)nc4c3)n2)cc1S(N)(=O)=O", "residual activity": "69%"}
{"molecule": "Nc1ncnc2[nH]nc(Nc3ccc(F)cc3)c12", "residual activity": "95.4%"}
{"molecule": "Cc1ccc(NC2=CC(=O)c3sc(C)nc3C2=O)cc1", "residual activity": "107%"}
{"molecule": "CCOC(=O)c1c(C)[nH]c(/C=C2\\C(=O)Nc3ccccc32)c1C", "residual activity": "94.8%"}
{"molecule": "CCN(CC)CCNC(=O)c1c(C)[nH]c(/C=C2\\C(=O)Nc3ccc(Cl)cc32)c1C", "residual activity": "101%"}
